For each of the molecules below, state its GI50.
System: RXF 393
Test: NCI tumour cell line growth inhibition, 48 h
Active and inactive are the calls of the source. Cut-off read from the data, not from the text of the source: active = GI50 up to about 1.1 µM and inactive = higher.

**Q:** For RXF 393, provide GI50 of Cc1cccc(N2C(=O)C3c4[nH]c5ccccc5c4C4CCC(C(C)(C)C)CC4C3C2=O)c1C (stereo not given) please.
**A:** > 100 µM (inactive)

**Q:** And what about the molecule `COc1cc2c(c(OC)c1OC)C(=O)[C@H](Br)[C@H]2NC(=O)NCCCl` ?
**A:** 97.1 µM (inactive)

**Q:** And what about the molecule `Cc1n[nH]c(=O)n1/N=C/c1ccc(Cl)cc1` ?
**A:** 22.3 µM (inactive)

**Q:** And what about the molecule `NC(=O)c1c2c(n3ccccc13)C(=O)c1ccccc1C2=O` ?
**A:** 37 µM (inactive)

**Q:** And what about the molecule NNC(=O)C1(NC(=O)c2ccccc2)C(c2ccccc2)C(c2ccccc2)=NN1c1ccccc1 (stereo not given) ?
**A:** 14.5 µM (inactive)

###

For each of the compounds below, state its GI50.
System: SF-295
Experiment: NCI tumour cell line growth inhibition, 48 h
Active and inactive are the calls of the source. Rule as the data show it: active = GI50 up to about 1.1 µM and inactive = higher.

**Q:** Look up GI50: `CCCNC(=O)c1cc(NC(=O)c2cc(NC(=O)/C=C/c3ccccc3)c(OC)c(OC)c2)c(OC)c(OC)c1`
**A:** 3.16 µM (inactive)

**Q:** And what about the compound `CCCCCCc1cc2cc(C(=O)Nc3cccc(C(F)(F)F)c3)c(=N)oc2cc1O` ?
**A:** 2.9 µM (inactive)

**Q:** And what about the compound `O=[N+]([O-])c1ccc(-c2nc(/C=N/N3CCCCC3)cs2)o1` ?
**A:** > 100 µM (inactive)

**Q:** And what about the compound CNC(=O)CCC(NC(C)=O)C(=O)NC(Cc1ccc(NC(=O)CCCCC(C)=O)cc1)C(=O)NC(CCC(=O)NC)C(=O)NC (stereo not given) ?
**A:** > 100 µM (inactive)

**Q:** And what about the compound S=C(N/N=C/c1ccccc1)NC1CC(c2ccccc2)Oc2ccccc21 (stereo not given) ?
**A:** 16.1 µM (inactive)

**Q:** And what about the compound CC12Oc3ccc4ccccc4c3CC1Cc1c(ccc3ccccc13)O2 (stereo not given) ?
**A:** 30 µM (inactive)

**Q:** And what about the compound `COc1cc(C=C2C(=O)NC(=S)NC2=O)cc(OC)c1OC` ?
**A:** > 100 µM (inactive)

**Q:** And what about the compound `Cc1ccc(F)c2[nH]c(-c3ccccc3)cc(=O)c12` ?
**A:** 6.47 µM (inactive)

**Q:** And what about the compound `O=C(c1cc(Cl)cc(Cl)c1)N(C(=S)OC12CC3CC(CC(C3)C1)C2)c1ccccc1` ?
**A:** 34.5 µM (inactive)

**Q:** And what about the compound `COc1ccc2c(=O)c([Se]c3coc4cc(OC)ccc4c3=O)coc2c1` ?
**A:** 24.7 µM (inactive)

###

Test system: K562
Assay: NCI tumour cell line growth inhibition, 48 h
The source made the active and inactive calls. Cut-off read from the data, not from the text of the source: active = GI50 up to about 1.1 µM and inactive = higher.
For each of the compounds below, state its GI50.

**Q:** Look up GI50: CCCCCCCCCCCCCC(=O)OC(/C=C/C(C)C)C(O)C(O)C(OC)C(=O)NC1CCCCN(C)C1=O (stereo not given)
**A:** 2.59 µM (inactive)

**Q:** And what about the compound COc1cc2c3c(c1OC)-c1ccccc1C(C(OC(C)=O)c1ccccc1)C3N(C)CC2 (stereo not given) ?
**A:** > 10 µM (inactive)

**Q:** And what about the compound `CC(C)(C)OC(=O)N1C[C@H](CC(=O)OCc2ccccc2)C[C@H]1C(=O)OCC(Cl)(Cl)Cl` ?
**A:** 2 µM (inactive)

**Q:** And what about the compound COc1ccc(CCN(C)C2CCC(C#N)(c3ccc(OC)c(OC)c3)CC2)cc1OC (stereo not given) ?
**A:** 39.1 µM (inactive)

**Q:** And what about the compound COC(=O)C(Cc1ccccc1)NC(=O)CNC(=O)CSc1nnc(COc2ccc(Cl)cc2)n1-c1ccccc1 (stereo not given) ?
**A:** 25.3 µM (inactive)

**Q:** And what about the compound `CCOC(=O)/C(=C/c1ccccc1)N(CC)CC` ?
**A:** > 100 µM (inactive)

**Q:** And what about the compound `C(=N\N=C1NCCCCN1)/c1ccc2ccccc2c1` ?
**A:** 20.9 µM (inactive)

**Q:** And what about the compound Cc1ccccc1OC(C)C(=O)NN1C(=O)CC(=O)NC1=S (stereo not given) ?
**A:** > 100 µM (inactive)

**Q:** And what about the compound `CCOC(=O)COC1=Nc2cc(OC)c(OC)c3nc(Cl)cc(c23)C1=O` ?
**A:** 1.2 µM (inactive)

**Q:** And what about the compound Cc1ccc2c(c1C)C(=O)C1(C2)Cc2ccc3c(c2C1=O)CCC3 (stereo not given) ?
**A:** > 100 µM (inactive)

These measurements were taken from ChEMBL document CHEMBL1201862.
